Protocol Description: in vivo
Experimental Parameters: BALB/c nude, mouse, in vivo, iv, total radioactivity, % ID/g Muscle
Procedure: To a 0.5 M NaOAc buffer (20-50 μL, pH=4.5) was added 4 μL of exemplary or comparator compound in DMSO stock solution (2000 μM) and 2 mCi ^177Lu (ITM Isotope Technologies Munich), the resulting mixture was heated to 95° C. for 15 min. The resulting product was analyzed by radio-TLC and radio-HPLC (column: Shim-pack GIST 5 μm 4.6*150 mm; buffer A: 0.2% formic acid H2O; buffer B: 0.1% formic acid acetonitrile; flow rate: 1 mL/min; gradient: 0-5 min: 10% B to 95% B; then 5-8 min: 95% B). […]
Listing of recorded tissue uptake at 72 h by entry.
I only need the number, in %ID/g, no unit after it.

Some compounds with recorded tissue uptake at 72 h:
compound="C[C@@H](O)[C@H](NC(=O)[C@@H]1CSSC[C@H](NC(=O)[C@@H](Cc2ccccc2)NC(=O)[C@H](CCCCNC(=O)COCCOCCNC(=O)c2cccc(NC(=O)N[C@@H]3CN(C4CCCCC4)c4ccccc4N(CC(=O)C(C)(C)C)C3=O)c2)NC(=O)CN2CCN(CC(=O)O)CCN(CC(=O)O)CCN(CC(=O)O)CC2)C(=O)N[C@@H](Cc2ccc(O)cc2)C(=O)N[C@H](Cc2c[nH]c3ccccc23)C(=O)N[C@@H](CCCCN)C(=O)N[C@@H]([C@@H](C)O)C(=O)N1)C(=O)O [^177Lu-I-36, metal not drawn]" assay_endpoint="tissue uptake at 72 h" recorded_measurement=0.13
compound="C[C@@H](O)[C@H](NC(=O)[C@@H]1CSSC[C@H](NC(=O)[C@@H](Cc2ccccc2)NC(=O)CN2CCN(CC(=O)O)CCN(CC(=O)O)CCN(CC(=O)O)CC2)C(=O)N[C@@H](Cc2ccc(O)cc2)C(=O)N[C@H](Cc2c[nH]c3ccccc23)C(=O)N[C@@H](CCCCN)C(=O)N[C@@H]([C@@H](C)O)C(=O)N1)C(=O)O [^177Lu-C-1, metal not drawn, reference compound]" assay_endpoint="tissue uptake at 72 h" recorded_measurement=0.01
compound="C[C@@H](O)[C@H](NC(=O)[C@@H]1CSSC[C@H](NC(=O)[C@@H](Cc2ccccc2)NC(=O)COCCOCCNC(=O)COCCOCCNC(=O)[C@H](CCCCNC(=O)c2cccc(NC(=O)N[C@@H]3CN(C4CCCCC4)c4ccccc4N(CC(=O)C(C)(C)C)C3=O)c2)NC(=O)CN2CCN(CC(=O)O)CCN(CC(=O)O)CCN(CC(=O)O)CC2)C(=O)N[C@@H](Cc2ccc(O)cc2)C(=O)N[C@H](Cc2c[nH]c3ccccc23)C(=O)N[C@@H](CCCCN)C(=O)N[C@@H]([C@@H](C)O)C(=O)N1)C(=O)O [Compound 177Lu-I-39, metal not drawn]" assay_endpoint="tissue uptake at 72 h" recorded_measurement=0.02
compound="C[C@@H](O)[C@H](NC(=O)[C@@H]1CSSC[C@H](NC(=O)[C@@H](Cc2ccccc2)NC(=O)[C@H](CCCCNC(=O)c2cccc(NC(=O)N[C@@H]3CN(C4CCCCC4)c4ccccc4N(CC(=O)C(C)(C)C)C3=O)c2)NC(=O)COCCOCCNC(=O)CN2CCN(CC(=O)O)CCN(CC(=O)O)CCN(CC(=O)O)CC2)C(=O)N[C@@H](Cc2ccc(O)cc2)C(=O)N[C@H](Cc2c[nH]c3ccccc23)C(=O)N[C@@H](CCCCN)C(=O)N[C@@H]([C@@H](C)O)C(=O)N1)C(=O)O [^177Lu-I-35, metal not drawn]" assay_endpoint="tissue uptake at 72 h" recorded_measurement=0.03

Read the next record carefully.
Quick note, tissue uptake at 72 h for C[C@@H](O)[C@H](NC(=O)[C@@H]1CSSC[C@H](NC(=O)[C@@H](Cc2ccccc2)NC(=O)COCCOCCNC(=O)[C@H](CCCCNC(=O)c2cccc(NC(=O)N[C@@H]3CN(C4CCCCC4)c4ccccc4N(CC(=O)C(C)(C)C)C3=O)c2)NC(=O)CN2CCN(CC(=O)O)CCN(CC(=O)O)CCN(CC(=O)O)CC2)C(=O)N[C@@H](Cc2ccc(O)cc2)C(=O)N[C@H](Cc2c[nH]c3ccccc23)C(=O)N[C@@H](CCCCN)C(=O)N[C@@H]([C@@H](C)O)C(=O)N1)C(=O)O [Compound 177Lu-I-37, metal not drawn] landed at 0.03
